- system: Granulocytic Elastase (human) (Homo sapiens)
- Construct: purchased Elastin Products Company, Inc
- Sequence (P08246 30-267): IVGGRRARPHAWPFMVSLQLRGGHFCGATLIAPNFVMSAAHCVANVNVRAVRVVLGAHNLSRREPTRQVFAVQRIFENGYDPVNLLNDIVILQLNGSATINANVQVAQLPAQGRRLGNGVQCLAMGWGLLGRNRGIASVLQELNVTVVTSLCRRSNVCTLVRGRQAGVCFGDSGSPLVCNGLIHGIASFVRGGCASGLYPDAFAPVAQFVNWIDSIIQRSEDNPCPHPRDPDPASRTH
- assay.remarks: Enzyme inhibition assay, leukocyte (granulocytic) elastase, release of p-nitroaniline from MeOSuc-Ala-Ala-Pro-Val-pNA
- Assay type: biochemical
- stated.conditions: 120 ng enzyme/assay
property.label: amount of inhibitor giving 50% inhibition, Granulocytic Elastase (human)

These solved cases illustrate the format of a correct answer.
{"columns": ["substance", "assay.value"],
 "data": [
  ["Leu^18 -Ala^32 -PSTI (DSLGREAKCYNELNGCTLIYDPVCGTDGNTYANECVLCFENRKRQTSILIQKSGPC; UniProt P00995 24-79, looked up, variant K18L P32A) [PSTI-1A, PSTI variant from cyanogen bromide cleavage of the PSTI-1A minifusion protein]", "18 ng"],
  ["Leu^18 -Glu^19 -Arg^21 -Ala^32 -PSTI (DSLGREAKCYNELNGCTLEYRPVCGTDGNTYANECVLCFENRKRQTSILIQKSGPC; UniProt P00995 24-79, looked up, variant K18L I19E D21R P32A) [PSTI-4A, PSTI variant obtained from the minifusion protein by BrCN-cleavage]", "17 ng"],
  ["Val^18 -Glu^19 -Arg^21 -PSTI (DSLGREAKCYNELNGCTVEYRPVCGTDGNTYPNECVLCFENRKRQTSILIQKSGPC; UniProt P00995 24-79, looked up, variant K18V I19E D21R) [PSTI-5P]", "15 ng"],
  ["Tyr^18 -Glu^19 -Arg^21 -PSTI (DSLGREAKCYNELNGCTYEYRPVCGTDGNTYPNECVLCFENRKRQTSILIQKSGPC; UniProt P00995 24-79, looked up, variant K18Y I19E D21R) [PSTI-3P]", "> 5000 ng"],
  ["Met^-1 -Leu^18 -Glu^19 -Arg^21 -Ala^32 -PSTI (DSLGREAKCYNELNGCTLEYRPVCGTDGNTYANECVLCFENRKRQTSILIQKSGPC; N-terminal Met; UniProt P00995 24-79, looked up, variant K18L I19E D21R P32A) [Met-PSTI-4A]", "16 ng"]
]}

Shifting focus to the substance that follows.
QUERY: Look at this substance and give its reported amount of inhibitor giving 50% inhibition, Granulocytic Elastase (human). Asn^-13 -Ala^-12 -Glu^-11 -Thr^-10 -Ala^-9 -His^-8 -Lys^-7 -Ser^-6 -Asn^-5 -Glu^-4 -Val^-3 -Thr^-2 -Met^-1 -Leu^18 -Glu^19 -Arg^21 -Ala^32 -PSTI ({Asn-Ala-Glu-Thr-Ala-H2N}-KSNEVTMDSLGREAKCYNELNGCTLEYRPVCGTDGNTYANECVLCFENRKRQTSILIQKSGPC; ends and bridges not checked; UniProt P00995 24-79, looked up, variant K18L I19E D21R P32A) [PSTI-4A [Minifusion]]
RESULT: 15 ng
